biological target: Recombinant full length human OGA enzyme (Homo sapiens, UniProt O60502); construct: Recombinant full length human OGA enzyme was purchased from Origene; experiment: OGA Enzyme Inhibition Biochemical Assay; conditions: 1 nM OGA, 100 μM 4-MUGlcNAc (Km), pH 6.4, 90 minutes at room temperature, 10-point dose-response from 20 μM
pIC50: −log10 of the molar value.
Could you label it satisfied if measured pIC50 is 7 or higher, and not satisfied otherwise?

> print(dat)
                                   compound                             system.tested       category
1  CC(=O)Nc1ncc(CN2CCCC(Cn3cncn3)C2)s1 (centres unmarked)  Recombinant full length human OGA enzyme (Homo sapiens, UniProt O60502)      satisfied
2  CC(=O)Nc1ncc(CN2C[C@@H](Cc3ncc(F)cn3)[C@H](C)C2)s1 (relative stereo)  Recombinant full length human OGA enzyme (Homo sapiens, UniProt O60502)      satisfied
3  CC(=O)Nc1ncc(CN2C[C@@H](Cc3ncc(F)cn3)C[C@@H]2C(F)(F)F)s1 (single isomer, unassigned)  Recombinant full length human OGA enzyme (Homo sapiens, UniProt O60502)  not satisfied
4  COc1cc(C[C@H]2CCCN(Cc3sc(NC(C)=O)nc3F)C2)ncn1  Recombinant full length human OGA enzyme (Homo sapiens, UniProt O60502)      satisfied
5  CC(=O)Nc1ncc(CN2CCC(Cc3ncc(F)cn3)C2C)s1 (centres unmarked)  Recombinant full length human OGA enzyme (Homo sapiens, UniProt O60502)  not satisfied

Input line: Hello, I need to know if CC(=O)Nc1ncc(CN2CCC[C@H](Cc3ccnc(C)n3)C2)s1 has measured pIC50 not below 7. Thanks!
Output line: satisfied

Input line: Also need COc1cc(CC2CCN(Cc3cnc(NC(C)=O)s3)C2)ccn1 (centres unmarked) , thanks.
Output line: satisfied

Input line: Also need CCc1cnn(CC2CCCN(Cc3cnc(NC(C)=O)s3)C2)c1 (centres unmarked) , thanks.
Output line: not satisfied

Input line: Also need CC(=O)Nc1ncc(CN2C[C@H](Cc3ncc(F)cn3)CC[C@H]2C)s1 (single isomer, unassigned) , thanks.
Output line: satisfied

Input line: Also need CC(=O)Nc1ncc(CN2CCCC(Cn3cc(C(F)(F)F)cn3)C2)s1 (centres unmarked) , thanks.
Output line: not satisfied

Input line: Also need COc1cc(CC2CCCN(Cc3cnc(NC(C)=O)s3)C2)ccn1 (centres unmarked) , thanks.
Output line: satisfied

Input line: Also need CC(=O)Nc1ncc(CN2CCCC(Cc3ccncc3)C2)s1 (centres unmarked) , thanks.
Output line: satisfied

Input line: Also need CC(=O)Nc1ncc(CN2CCCC(Cc3ccccn3)C2)s1 (centres unmarked) , thanks.
Output line: satisfied

Input line: Also need CC(=O)Nc1ncc(CN2CCC[C@H](Cc3ncc(F)c(C)n3)C2)s1 , thanks.
Output line: satisfied

----------
Target: Recombinant full length human OGA enzyme (Homo sapiens, UniProt O60502)
Construct: Recombinant full length human OGA enzyme was purchased from Origene
Sequence (O60502 1-916): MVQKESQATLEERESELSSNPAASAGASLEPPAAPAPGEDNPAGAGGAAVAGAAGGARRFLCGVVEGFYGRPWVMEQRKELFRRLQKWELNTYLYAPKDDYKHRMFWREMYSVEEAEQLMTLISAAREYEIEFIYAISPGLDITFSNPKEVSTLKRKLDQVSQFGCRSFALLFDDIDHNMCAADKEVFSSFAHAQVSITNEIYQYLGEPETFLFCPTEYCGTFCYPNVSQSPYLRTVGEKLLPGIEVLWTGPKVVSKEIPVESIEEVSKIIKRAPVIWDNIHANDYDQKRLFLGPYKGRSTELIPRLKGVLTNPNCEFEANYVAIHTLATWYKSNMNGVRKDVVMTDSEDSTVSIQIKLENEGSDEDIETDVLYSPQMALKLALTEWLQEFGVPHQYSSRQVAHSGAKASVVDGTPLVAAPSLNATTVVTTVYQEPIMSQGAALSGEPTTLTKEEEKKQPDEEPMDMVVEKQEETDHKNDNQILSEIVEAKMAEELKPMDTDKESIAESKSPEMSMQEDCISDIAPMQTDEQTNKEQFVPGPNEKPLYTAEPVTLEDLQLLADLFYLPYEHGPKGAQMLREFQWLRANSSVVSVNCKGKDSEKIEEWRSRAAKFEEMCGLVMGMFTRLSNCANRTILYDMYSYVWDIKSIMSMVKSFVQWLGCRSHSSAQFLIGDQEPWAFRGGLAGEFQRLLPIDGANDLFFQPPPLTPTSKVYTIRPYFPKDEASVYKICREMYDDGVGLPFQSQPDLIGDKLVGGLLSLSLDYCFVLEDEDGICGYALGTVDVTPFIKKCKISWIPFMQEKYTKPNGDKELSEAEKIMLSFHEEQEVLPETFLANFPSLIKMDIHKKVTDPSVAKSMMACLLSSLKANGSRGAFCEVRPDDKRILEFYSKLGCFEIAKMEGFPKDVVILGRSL
Test: OGA Enzyme Inhibition Biochemical Assay
Conditions: 1 nM OGA, 100 μM 4-MUGlcNAc (Km), pH 6.4, 90 minutes at room temperature, 10-point dose-response from 20 μM
measure_name: pIC50
One number for each entry, as −log10 of the molar value.

Some entries whose results are on file:
> print(dat)
                                   molecule                             system.tested  recorded.measurement
1  COc1cc(C[C@@H]2CCN(Cc3sc(NC(C)=O)nc3F)C2)ncn1 [Example 3-34]  Recombinant full length human OGA enzyme (Homo sapiens, UniProt O60502)                  8.10
2  COc1cc(C(C)C2CCN(Cc3sc(NC(C)=O)nc3F)C2)ncn1 (stereo not drawn) [Example 2-52]  Recombinant full length human OGA enzyme (Homo sapiens, UniProt O60502)                  8.77
3  CC(=O)Nc1ncc(CN2CCCC(Cc3nc(C)nc4ccsc34)C2)s1 (stereo not drawn) [Example 1-43]  Recombinant full length human OGA enzyme (Homo sapiens, UniProt O60502)                  8.52
4  CC(=O)Nc1ncc(CN2CCC(Cc3ccccn3)C2)s1 (stereo not drawn) [Example 2-15]  Recombinant full length human OGA enzyme (Homo sapiens, UniProt O60502)                  7.08
5  CC(=O)Nc1ncc(CN2CCCC(Cc3ccc(F)cc3)C2)s1 (stereo not drawn) [Example 1-1]  Recombinant full length human OGA enzyme (Homo sapiens, UniProt O60502)                  7.22

Record pIC50 per entry; entries follow.
1. CC(=O)Nc1ncc(CN2CC[C@@H](C)[C@@H](Cc3ncc(F)cn3)C2)s1 (single isomer, unassigned) [Example 2-40]
2. CC(=O)Nc1ncc(CN2CCCC(Cc3nc(C)cs3)C2)s1 (stereo not drawn) [Example 1-34]
3. CC(=O)Nc1ncc(CN2CCC[C@H]([C@H](C)c3ncc(F)cn3)C2)s1 (single isomer, unassigned) [Example 2-32]
4. CC(=O)Nc1nc(F)c(CN2CC[C@H](Cc3cc(C)ncc3F)C2)s1 [Example 3-28]
5. CC(=O)Nc1nc(F)c(CN2CC[C@@H](Cc3ncc(F)cn3)C2)s1 [Example 3-36]
6. COc1ccc(CC2CCCN(Cc3cnc(NC(C)=O)s3)C2)cn1 (stereo not drawn) [Example 1-11]
7. CC(=O)Nc1ncc(CN2CCC[C@H](Cc3ncccn3)C2)s1 [Example 3-7]

Output line:
7.57
8.30
6.48
8.08
7.11
8.40
8.70

Record pIC50 per entry; entries follow.
1. CC(=O)Nc1ncc(CN2CCCC(Cc3ncc(C)s3)C2)s1 (stereo not drawn) [Example 1-35]
2. CC(=O)Nc1ncc(CN2C[C@@H](Cc3ncc(F)cn3)C[C@@H]2C)s1 (single isomer, unassigned) [Example 2-21]
3. CC(=O)Nc1nc(F)c(CN2C[C@H](Cc3ncc(F)cn3)C[C@@H]2C)s1 [Example 3-40]
4. CC(=O)Nc1ncc(CN2CCCC(Cc3ccn(C)n3)C2)s1 (stereo not drawn) [Example 1-47]
5. CC(=O)Nc1ncc(CN2C[C@@H](Cc3ncc(F)cn3)CC[C@H]2C)s1 (single isomer, unassigned) [Example 2-24]

Output line:
1: 8.30; 2: 6.97; 3: 6.82; 4: 7.80; 5: 5.96

Record pIC50 per entry; entries follow.
1. COc1cc(C[C@H]2C[C@@H](C)N(Cc3sc(NC(C)=O)nc3F)C2)ncn1 [Example 3-45]
2. CC(=O)Nc1ncc(CN2CCC[C@H](Cc3ncc(C(F)F)cn3)C2)s1 [Example 3-6]
3. CC(=O)Nc1nc(F)c(CN2CCC(C(C)c3ncc(F)cn3)C2)s1 (stereo not drawn) [Example 2-51]
4. CC(=O)Nc1ncc(CN2CCC[C@@H](Cc3ncc(F)cn3)C2)s1 [Example 2-33]

Output line:
1: 8.36; 2: 8.70; 3: 9.00; 4: 6.91
